Ref: ChEMBL document CHEMBL3351558

assay: Cytotoxicity against human MT2 cells assessed as reduction in cell viability by MTT assay; format: cell-based
Each record is given criterion met if its reported CC50 is strictly below 70 µM. Records at or above 70 µM are given criterion not met.

Reference set (6 entries):
N#Cc1ccc2c(Oc3ccccc3OCCn3ccc(=O)[nH]c3=O)cccc2c1 criterion not met
N#Cc1ccc2c(Oc3ccc(Cl)cc3OCCn3ccc(=O)[nH]c3=O)cc(F)cc2c1 criterion met
N#Cc1cc2c(Oc3ccc(F)cc3OCCn3ccc(=O)[nH]c3=O)cc(Cl)cn2c1 criterion met
N#Cc1ccc2c(Oc3ccc(F)cc3OCCn3ccc(=O)[nH]c3=O)cccc2c1 criterion not met
N#Cc1cc2c(Oc3ccccc3OCCn3ccc(=O)[nH]c3=O)cc(Cl)cc2o1 criterion not met
N#Cc1cc2c(Oc3ccccc3OCCn3ccc(=O)[nH]c3=O)cc(Cl)cc2[nH]1 criterion not met

Q. Dear reviewer, please state whether N#Cc1cc2c(Oc3ccccc3OCCn3ccc(=O)[nH]c3=O)cccc2o1 has CC50 strictly beneath 70 µM.
A. criterion not met

Q. Dear reviewer, please state whether N#Cc1cc2c(Oc3ccc(F)cc3OCCn3ccc(=O)[nH]c3=O)cccc2o1 has CC50 strictly beneath 70 µM.
A. criterion not met

Q. Dear reviewer, please state whether O=c1ccn(CCOc2ccccc2Oc2cccc3ccccc23)c(=O)[nH]1 has CC50 strictly beneath 70 µM.
A. criterion not met

###

assay: Aqueous solubility of the compound at pH 6.5 after 48 hrs by shake-flask method; assay type: physicochemical
Can you tell me log10 solubility thermodynamic at 48 h for the items I'm about to list?
// units: µg/mL (pre-log); metric: solubility thermodynamic at 48 h; scale: log10

Example compounds with recorded log10 solubility thermodynamic at 48 h:
N#Cc1ccc2c(Oc3ccccc3OCCn3ccc(=O)[nH]c3=O)cccc2c1 0.63
N#C/C=C/c1cc(F)cc(Oc2ccc(F)cc2OCCn2ccc(=O)[nH]c2=O)c1 1.03
N#C/C=C/c1cc(Cl)cc(Oc2ccccc2OCCn2ccc(=O)[nH]c2=O)c1 2.71

Kindly give each listed record's log10 solubility thermodynamic at 48 h.
1. N#Cc1cc2c(Oc3ccc(F)cc3OCCn3ccc(=O)[nH]c3=O)cc(F)cn2c1
2. CN1C(C(=O)Nc2ccccn2)=C(O)c2ccccc2S1(=O)=O

A.
1: 1.64; 2: 0.70

###

experiment: Cytotoxicity against human MT2 cells assessed as reduction in cell viability by MTT assay; assay type: cell-based
Each record is given label 1 if its reported CC50 is strictly below 20 µM. Records at or above 20 µM are given label 0.

Reference set (6 entries):
MOLECULE	CATEGORY_LABEL
Cc1ccnc2c1NC(=O)c1cccnc1N2C1CC1 [NEVIRAPINE]	label 0
Cc1ccc2c(Oc3ccccc3OCCn3ccc(=O)[nH]c3=O)cccc2c1	label 0
N#C/C=C/c1cc(Cl)cc(Oc2ccccc2OCCn2ccc(=O)[nH]c2=O)c1	label 1
Cc1cc(Oc2ccccc2OCCn2ccc(=O)[nH]c2=O)c2cc(C#N)[nH]c2c1	label 1
N#Cc1ccc2c(Oc3ccc(F)cc3OCCn3ccc(=O)[nH]c3=O)cc(Cl)cc2c1	label 1
N#Cc1ccc2c(Oc3ccc(F)cc3OCCn3ccc(=O)[nH]c3=O)cc(F)cc2c1	label 0

Q. Dear reviewer, please state whether N#Cc1ccc2c(Oc3ccc(Cl)cc3OCCn3ccc(=O)[nH]c3=O)cccc2c1 has CC50 strictly beneath 20 µM.
A. label 0

Q. Dear reviewer, please state whether N#Cc1cc2c(Oc3ccc(Cl)cc3OCCn3ccc(=O)[nH]c3=O)cccc2o1 has CC50 strictly beneath 20 µM.
A. label 1

Q. Dear reviewer, please state whether O=c1ccn(CCOc2ccccc2Oc2cc(Cl)cc3cc(Cl)ccc23)c(=O)[nH]1 has CC50 strictly beneath 20 µM.
A. label 0

Q. Dear reviewer, please state whether N#Cc1cc2c(Oc3ccc(F)cc3OCCn3ccc(=O)[nH]c3=O)cc(F)cn2c1 has CC50 strictly beneath 20 µM.
A. label 0

###

Can you tell me CC50 for the items I'm about to list?
assay: Cytotoxicity against human MT2 cells assessed as reduction in cell viability by MTT assay; format: cell-based
One number for each entry, in µM.

Example compounds with recorded CC50:
N#Cc1cc2c(Oc3ccccc3OCCn3ccc(=O)[nH]c3=O)cc(F)cn2c1 40
N#Cc1cc2c(Oc3ccccc3OCCn3ccc(=O)[nH]c3=O)cc(Cl)cn2c1 39
N#Cc1ccc2c(Oc3ccccc3OCCn3ccc(=O)[nH]c3=O)cc(Cl)cc2c1 24
N#Cc1cc2c(Oc3ccc(F)cc3OCCn3ccc(=O)[nH]c3=O)cccn2c1 100

Q. Given N#Cc1ccc2c(Oc3ccc(Cl)cc3OCCn3ccc(=O)[nH]c3=O)cc(Cl)cc2c1 , state its recorded CC50.
A. 20

###

Can you tell me CC50 for the items I'm about to list?
test: Cytotoxicity against human MT2 cells assessed as reduction in cell viability by MTT assay; format: cell-based

N#Cc1cc2c(Oc3ccccc3OCCn3ccc(=O)[nH]c3=O)cccn2c1 > 100 µM

Kindly give each listed record's CC50.
1. N#Cc1ccc2c(Oc3ccccc3OCCn3ccc(=O)[nH]c3=O)cc(F)cc2c1
2. O=c1ccn(CCOc2ccccc2Oc2cccc3cc(Cl)ccc23)c(=O)[nH]1

A.
["> 100 µM", "> 100 µM"]
